So I've got a bunch of compounds here, and I need their viability, T/C values.
Tested on: 422866-222-R5-J1-PDC spheroids with HUVEC/MSC, viability;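 note: spheroids exposed to compounds for seven days before reading; percent viability relative to DMSO vehicle control taken as 100%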
assay: Anticancer human tumor 422866-222-R5-J1-PDC patient-derived pancreatic adenocarcinoma cell line growth inhibition [GQUAD]
assayContext: second compound 0.1 µM; first compound 0.1 µM; stronger effect = lower value

These solved cases illustrate the format of a correct answer.
compound	viability, T/C
COc1ncnc(C2CC2)c1-c1ncc2cnn(Cc3ccc(-c4nc(C(F)(F)F)cn4C(C)C)cc3)c2n1 + CN(C)c1ccc(Nc2c3ccc(NC(=O)CCN4CCCC4)cc3nc3cc(NC(=O)CCN4CCCC4)ccc23)cc1	104%
CC(C)(O)C1CCC(Nc2ccc3ncc(-c4cccc(C(F)(F)F)c4)n3n2)CC1 (stereo not given) + Cc1[nH]c2ccc(F)cc2c1-c1nc2c3cccnc3c3ncccc3c2[nH]1	103%
CC(=O)O[C@H]1C(=O)[C@@]2(C)[C@H]([C@H](OC(=O)c3ccccc3)[C@]3(O)C[C@H](OC(=O)[C@H](O)[C@@H](NC(=O)c4ccccc4)c4ccccc4)C(C)=C1C3(C)C)[C@]1(OC(C)=O)CO[C@@H]1C[C@@H]2O + CN(C)c1ccc(Nc2c3ccc(NC(=O)CCN4CCCC4)cc3nc3cc(NC(=O)CCN4CCCC4)ccc23)cc1	60.7%
CC1COCCN1c1cc(-c2ccnn2C)c2ccnc(-c3ccn[nH]3)c2n1 (stereo not given) + Cc1[nH]c2ccc(F)cc2c1-c1nc2c3cccnc3c3ncccc3c2[nH]1	64.9%
CCCS(=O)(=O)Nc1ccc(F)c(C(=O)c2c[nH]c3ncc(-c4ccc(Cl)cc4)cc23)c1F + Cc1[nH]c2ccc(F)cc2c1-c1nc2c3cccnc3c3ncccc3c2[nH]1	88.5%
C=CC(=O)N1CCN(c2nc(=O)n(-c3c(C)ccnc3C(C)C)c3nc(-c4c(O)cccc4F)c(F)cc23)C(C)C1 (stereo not given) + Cc1cnc(CNC(=O)c2c(=O)c3ccc(N4CCCN(C)CC4)nc3n3c2sc2ccccc23)cn1	30.4%
CC(=O)O[C@H]1C(=O)[C@@]2(C)[C@H]([C@H](OC(=O)c3ccccc3)[C@]3(O)C[C@H](OC(=O)[C@H](O)[C@@H](NC(=O)c4ccccc4)c4ccccc4)C(C)=C1C3(C)C)[C@]1(OC(C)=O)CO[C@@H]1C[C@@H]2O + Cc1[nH]c2ccc(F)cc2c1-c1nc2c3cccnc3c3ncccc3c2[nH]1	128%
O=C(c1cc(Cc2n[nH]c(=O)c3ccccc23)ccc1F)N1CCN(C(=O)C2CC2)CC1 + Cc1cnc(CNC(=O)c2c(=O)c3ccc(N4CCCN(C)CC4)nc3n3c2sc2ccccc23)cn1	84.4%
O=c1[nH]cc(F)c(=O)[nH]1 + CN(C)c1ccc(Nc2c3ccc(NC(=O)CCN4CCCC4)cc3nc3cc(NC(=O)CCN4CCCC4)ccc23)cc1	74.6%
C#Cc1c(F)ccc2cc(O)cc(-c3ncc4c(N5CC6CCC(C5)N6)nc(OCC56CCCN5CC(F)C6)nc4c3F)c12 (stereo not given) + CN(C)c1ccc(Nc2c3ccc(NC(=O)CCN4CCCC4)cc3nc3cc(NC(=O)CCN4CCCC4)ccc23)cc1	83.4%

I'm hoping you can list viability, T/C for every compound here, please.
1. COc1ccc([C@@H](O)c2cc(-c3ncnc4cc(N5CCOCC5)ccc34)c(F)cc2Cl)nn1 + Cc1cnc(CNC(=O)c2c(=O)c3ccc(N4CCCN(C)CC4)nc3n3c2sc2ccccc23)cn1
2. O=C(c1cc(Cc2n[nH]c(=O)c3ccccc23)ccc1F)N1CCN(C(=O)C2CC2)CC1 + CN(C)c1ccc(Nc2c3ccc(NC(=O)CCN4CCCC4)cc3nc3cc(NC(=O)CCN4CCCC4)ccc23)cc1
3. CC(=O)O[C@H]1C(=O)[C@@]2(C)[C@H]([C@H](OC(=O)c3ccccc3)[C@]3(O)C[C@H](OC(=O)[C@H](O)[C@@H](NC(=O)c4ccccc4)c4ccccc4)C(C)=C1C3(C)C)[C@]1(OC(C)=O)CO[C@@H]1C[C@@H]2O + Cc1cnc(CNC(=O)c2c(=O)c3ccc(N4CCCN(C)CC4)nc3n3c2sc2ccccc23)cn1

Result:
["87.4%", "95.3%", "86.3%"]

I'm hoping you can list viability, T/C for every compound here, please.
1. C=CCn1c(=O)c2cnc(Nc3ccc(N4CCN(C)CC4)cc3)nc2n1-c1cccc(C(C)(C)O)n1 + Cc1cnc(CNC(=O)c2c(=O)c3ccc(N4CCCN(C)CC4)nc3n3c2sc2ccccc23)cn1
2. Cc1cccc(N(C)C(=O)C2C(O)CCN2c2nc(C)cc(C(F)(F)F)c2C#N)c1 (stereo not given) + CN(C)c1ccc(Nc2c3ccc(NC(=O)CCN4CCCC4)cc3nc3cc(NC(=O)CCN4CCCC4)ccc23)cc1

Result:
1. 71.9%
2. 81%
